Where these numbers come from: PubChem BioAssay (NCATS)

# method description: qHTS of pediatric cancer cell lines to identify multiple opportunities for drug repurposing: Primary screen for TC32 cells (AID 1347089); note: nearly all actives have a fitted effect of over 60% in size
# test parameters: TC32 Ewing sarcoma viability, CellTiter-Glo luminescence, 48 h; series mostly up to 45.8 µM
Records with an inconclusive call do not appear. Active and inactive are the calls of the source. Calls come from the whole dose curve; as a rule, active = well fitted cell-killing curve with a large enough effect; inconclusive = small, poorly fitted or top-dose-only effect; inactive = flat fitted curve, though single readings scatter.
Returns: one label drawn from 1 (yes) = active, 0 (no) = inactive

query: What did the test return for CCN(C(=O)c1c(O)c2c(Cl)cccc2n(C)c1=O)c1ccccc1 ?
result: 0 (no)

query: What did the test return for Cn1cc(C[C@@H](N)C(=O)O)c2ccccc21 ?
result: 0 (no)

query: What did the test return for C[C@H](NCc1ccc2c(c1)nc(NC(=O)c1ccc(-c3cn[nH]c3)s1)n2CCc1ccccc1)C(C)(C)C ?
result: 1 (yes)

query: What did the test return for CNC(=O)c1cccc(-c2ccc3c(N4CCOC[C@H]4C)nc(N4CCOC[C@H]4C)nc3n2)c1 ?
result: 1 (yes)

query: What did the test return for CCCCCCCCCCCC(CC1OC(=O)C1CCCCCC)OC(=O)C(CC(C)C)NC=O (centres undefined) ?
result: 0 (no)

query: What did the test return for CC(Oc1ccc(O)cc1)(P(=O)(O)O)P(=O)(O)O ?
result: 0 (no)

query: What did the test return for Nc1nc(N)c2nc(-c3cccc(O)c3)c(-c3cccc(O)c3)nc2n1 ?
result: 1 (yes)

query: What did the test return for C[C@H](NC(=O)Cc1cc(F)cc(F)c1)C(=O)N[C@H](C(=O)OC(C)(C)C)c1ccccc1 ?
result: 0 (no)

query: What did the test return for CC1(C)CC(O)CC(C)(C)N1[O] ?
result: 0 (no)

---

# method description: Quantitative High-Throughput drug screen in 47 multiple myeloma cell lines against the NCATS MIPE library collection: OPM1_PLB cell viability assay (AID 1918989); note: nearly all actives have a fitted effect of over 40% in size
# test parameters: CellTiter-Glo, 48 h; series mostly up to 45.8 µM
Records with an inconclusive call do not appear. Activity calls are given as the source filed them. Calls come from the whole dose curve; as a rule, active = well fitted cell-killing curve with a large enough effect; inconclusive = small, poorly fitted or top-dose-only effect, or effect the other way; inactive = no such curve, though single readings can be large or run the other way.
Returns: one label drawn from active, inactive

query: What did the test return for O=c1c(O)c(-c2ccc(O)c(O)c2)oc2cc(O)ccc12 ?
result: active

query: What did the test return for CCc1cc(C(C)=NOCc2ccc(C3CCCCC3)c(C(F)(F)F)c2)ccc1CN1CC(C(=O)O)C1 ?
result: active

query: What did the test return for CC(C)(O)Cn1c(NC(=O)c2ccc(-c3cn[nH]c3)s2)nc2cc(CN3CCOCC3)ccc21 ?
result: active

query: What did the test return for CC(=O)OC[C@@H]1O[C@@H](n2ccc(=O)[nH]c2=O)[C@H](OC(C)=O)[C@H]1OC(C)=O ?
result: inactive

query: What did the test return for CCC(C=C[C@@H]1OC(=O)C=C[C@H]1C)=C[C@H](C)CC=CC(C)=C[C@@H](C)C(=O)[C@@H](C)[C@H](O)[C@@H](C)CC(C)=CC(=O)O ?
result: active

query: What did the test return for CCc1c(O)cc(O)c(C(=O)c2ccc(OCCN3CCOCC3)c(OC)c2)c1CC(=O)N(CCOC)CCOC ?
result: active

query: What did the test return for Cc1cncc2cccc(S(=O)(=O)N3CCCN(C(=O)CN)C[C@@H]3C)c12 ?
result: inactive

query: What did the test return for COc1cc(OC)c(NC(=O)Nc2cc(C)on2)cc1Cl ?
result: inactive

query: What did the test return for C[C@@H](NCc1cc2ccccc2[nH]1)c1cccc2ccccc12 ?
result: inactive

query: What did the test return for CC[C@H]1OC(=O)[C@H](C)[C@@H](O[C@H]2C[C@@](C)(OC)[C@@H](O)[C@H](C)O2)[C@H](C)[C@@H](O[C@@H]2O[C@H](C)C[C@H](N(C)C)[C@@H]2O)[C@](C)(OC)C[C@@H](C)C(=O)[C@H](C)[C@@H](O)[C@]1(C)O ?
result: inactive

query: What did the test return for O=C1c2cccc(O)c2C(=O)c2c(O)cc(CO)cc21 ?
result: inactive

query: What did the test return for C[C@H](NC(=O)[C@@H](O)c1cc(F)cc(F)c1)C(=O)N[C@@H]1C(=O)N(C)c2ccccc2-c2ccccc21 ?
result: inactive

query: What did the test return for NC(=O)c1ncn([C@@H]2O[C@H](CO)[C@@H](O)[C@@H]2O)c1O ?
result: inactive

query: What did the test return for O=c1[nH]c(=O)n([C@H]2C[C@@H](O)[C@@H](CO)O2)cc1F ?
result: active

query: What did the test return for NS(=O)(=O)OC[C@@H]1C[C@@H](n2ccc3c(N[C@H]4CCc5ccccc54)ncnc32)C[C@H]1O ?
result: active

query: What did the test return for CC(=O)O[C@@]12CO[C@H]1C[C@H](O)[C@@]1(C)C(=O)[C@H](O)C3=C(C)[C@@H](OC(=O)C(O)[C@@H](NC(=O)OC(C)(C)C)c4ccccc4)C[C@@](O)([C@@H](OC(=O)c4ccccc4)[C@@H]21)C3(C)C (stereo not given in full) ?
result: inactive

query: What did the test return for COC1=C(OC)C(=O)C(CC=C(C)CCC=C(C)CCC=C(C)CCC=C(C)CCC=C(C)CCC=C(C)CCC=C(C)CCC=C(C)CCC=C(C)CCC=C(C)C)=C(C)C1=O ?
result: inactive

query: What did the test return for C=C1C(=O)O[C@H]2[C@@H]1CCC(C)=CCC[C@@]1(C)O[C@@H]21 ?
result: active

query: What did the test return for CNC(=O)c1ccc(Nc2cc(Nc3ccccc3S(=O)(=O)C(C)C)c3cc[nH]c3n2)nc1 ?
result: active

query: What did the test return for COc1ccc([C@@H]2CNC(=O)C2)cc1OC1CCCC1 ?
result: active

---

# method description: Quantitative High-Throughput drug screen in 47 multiple myeloma cell lines against the NCATS MIPE library collection: LP1_DSMZ cell viability assay (AID 1918982); note: nearly all actives have a fitted effect of over 35% in size
# test parameters: LP1 myeloma viability, CellTiter-Glo ATP luminescence, 48 h; series mostly up to 45.8 µM
Records with an inconclusive call do not appear. Activity calls are given as the source filed them. Calls follow the shape of the dose curve; as a rule, active = well fitted cell-killing curve with a large enough effect; inconclusive = small, poorly fitted or top-dose-only effect, or effect the other way; inactive = no such curve, though single readings can be large or run the other way.
Returns: one label drawn from true for active, false for inactive

query: What did the test return for C[C@H](NCc1ccc(OCc2cccc(F)c2)cc1)C(N)=O ?
result: true

query: What did the test return for C[N+](C)([O-])CCNc1ccc(NCC[N+](C)(C)[O-])c2c1C(=O)c1c(O)ccc(O)c1C2=O ?
result: false

query: What did the test return for CN[C@H]1[C@@H](O)[C@@H]2O[C@@H]3O[C@H](C)CC(=O)[C@]3(O)O[C@@H]2[C@@H](NC)[C@H]1O ?
result: true

query: What did the test return for COC(=O)[C@@H]1[C@H]2C[C@@H]3c4[nH]c5ccccc5c4CCN3C[C@@H]2CC[C@@H]1O ?
result: false

query: What did the test return for Cn1cc(-c2ccc3ncc(Cc4ccc5ncccc5c4)n3n2)cn1 ?
result: false

query: What did the test return for O=[N+]([O-])c1cn2c(n1)OC[C@@H](OCc1ccc(OC(F)(F)F)cc1)C2 ?
result: false

query: What did the test return for OCc1ccccc1O[C@@H]1O[C@H](CO)[C@H](O)[C@H](O)[C@H]1O ?
result: false

query: What did the test return for COc1cccc2c1C(=O)c1c(O)c3c(c(O)c1C2=O)C[C@@](O)(C(=O)CO)C[C@@H]3O[C@H]1C[C@H](N)[C@H](OC2CCCCO2)[C@H](C)O1 (stereo partly drawn) ?
result: true

query: What did the test return for COc1cccc2c1C(=O)c1c(O)c3c(c(O)c1C2=O)C[C@@](O)(C(=O)CO)C[C@@H]3O[C@H]1C[C@H](N)[C@@H](O)[C@H](C)O1 ?
result: true

query: What did the test return for COc1ccc([C@@H]2CNC(=O)C2)cc1OC1CCCC1 ?
result: false

query: What did the test return for Oc1cc2c(cc1O)C1c3ccc(O)c(O)c3OCC1(O)C2 (stereo not drawn) ?
result: false

query: What did the test return for O=C(Nc1cccc(Nc2ncc(Br)c(NCCc3cnc[nH]3)n2)c1)N1CCCC1 ?
result: true

query: What did the test return for O=C(CN1C(=O)C2(CCCC2)NC[C@H]1c1cc(F)cc(F)c1)Nc1ccc2c(c1)C[C@@]1(C2)C(=O)Nc2ncccc21 ?
result: false

---

# method description: Quantitative High-Throughput drug screen in 47 multiple myeloma cell lines against the NCATS MIPE library collection: KMS12BM_JCRB cell viability assay (AID 1918971); note: nearly all actives have a fitted effect of over 35% in size
# test parameters: KMS12BM myeloma viability, CellTiter-Glo ATP, 48 h; series mostly up to 45.8 µM
Results filed as inconclusive are left out. Calls of active or inactive are those of the source. Calls come from the whole dose curve; as a rule, active = well fitted cell-killing curve with a large enough effect; inconclusive = small, poorly fitted or top-dose-only effect, or effect the other way; inactive = no such curve, though single readings can be large or run the other way.
Returns: one label drawn from YES (active), NO (inactive)

query: What did the test return for CCc1cc(C(C)=NOCc2ccc(C3CCCCC3)c(C(F)(F)F)c2)ccc1CN1CC(C(=O)O)C1 ?
result: YES

query: What did the test return for C=C[C@@H]1CN2CCC1C[C@H]2[C@H](O)c1ccnc2ccc(OC)cc12 (some centres undefined) ?
result: NO

query: What did the test return for CC(=O)O[C@]1(C(C)=O)CC[C@H]2[C@@H]3C=C(C)C4=CC(=O)CC[C@]4(C)[C@@H]3CC[C@@]21C ?
result: YES

query: What did the test return for COc1ccc(S(=O)(=O)Nc2cccnc2Nc2ccc(O)cc2)cc1 ?
result: YES
